Test system: IFNγ-Induced NO Production in RAW 264.7 cells
protocolDetails: Nitric Oxide Suppression Assay (suppression of IFNγ-induced NO production)
Type: cell-based
conditionsUsed: RAW264.7; RAW 264.7 mouse macrophage cells, 20 ng/mL interferon gamma, Griess detection; single curve fit to mean data of n=2-3
Reported IC50 values are given for each entry in this list.
Field format: number, assumed nM, no unit text.

Recorded IC50 for Cn1cc(CNC(=O)[C@@]2(C)CC[C@]3(C)CC[C@]4(C)[C@H](C(=O)C=C5[C@@]6(C)C=C(C#N)C(=O)C(C)(C)[C@@H]6CC[C@]54C)[C@@H]3C2)cn1 [Example 38] , please?
6.8

Data provenance is patent US20140073700A1.
